# tested target: Calmodulin-1 (Homo sapiens) (UniProt P0DP23)
# test protocol: small molecules binding Ca-loaded calmodulin-1 – biochemical, small-molecule microarray, Cy5-labelled CALM1, plus calcium, artefact control for SMM control-protein annotation, profiling panel (AID 1112);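 also: score merges spot fluorescence with signal to noise from triplicate slides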
# experimental context: Cy5-CALM1 binding fluorescence, higher = more signal
Parameter threshold = 0.5. Response is Fulfilled when composite z-score meets or exceeds it, else Not fulfilled.

Worked set:
Incoming: Threshold query (composite z-score >= 0.5) on C=CCC(OC(C)=O)[C@@H]1[C@@H](N(Cc2cc3ccccc3o2)C(=O)Cc2ccc(OC)cc2)c2cc(OCCCO)ccc2N1C(=O)c1ccc(-c2ccccc2)cc1 (some centres not stated)
Outgoing: Not fulfilled

Incoming: Threshold query (composite z-score >= 0.5) on "CCCCC(=C=CC[C@H](O)c1cccc(OCCO)c1)C[C@H](O)COCc1ccccc1"
Outgoing: Not fulfilled

Incoming: Threshold query (composite z-score >= 0.5) on CCCc1cc2c(n1Cc1ccc(OC)cc1)C(C)C1CN(C(=O)c3ccccc3)C(C)(C(=O)OC)C21 (configuration not stated)
Outgoing: Fulfilled

Incoming: Threshold query (composite z-score >= 0.5) on "C=C(/C(=C/C[C@@H](OC(C)=O)c1ccccc1OCCO)c1cnc2ccccc2c1)C(C)C"
Outgoing: Not fulfilled

Incoming: Threshold query (composite z-score >= 0.5) on "O=C1O[C@H](c2ccccc2)[C@H](c2ccccc2)N2[C@H]1[C@@H](C(=O)N1CCN(c3ncccn3)CC1)[C@]1(C(=O)Nc3ccc(C#CCCO)cc31)[C@H]2c1ccccc1OCCO"
Outgoing: Not fulfilled

Continuing:
Incoming: Threshold query (composite z-score >= 0.5) on O=C1NC(=O)C2C1C=CC(C(O)c1ccc3c(c1)OCO3)N2Nc1ccc(Cl)cc1Cl (configuration not stated)
Outgoing: Fulfilled

Incoming: Threshold query (composite z-score >= 0.5) on C=C(C)[C@@H]1CC=C(C(O)C2C=CC3C(=O)N(C4CCCCC4)C(=O)C3N2Nc2ccc(OC)cc2)CC1 (some centres not stated)
Outgoing: Not fulfilled

====

Form field: composite z-score (one value per entry).
# Test system: XIP peptide (Xip251-270)
# test protocol: compounds binding XIP fragment 251-270 – biochemical, small-molecule microarray, fluorescence 635/667 nm, 0.5 µg/mL protein, primary screen (AID 1183)
# experimental context: fluorescence 635 nm, higher = more signal

Consider the following illustrative entries.
// "O=C1O[C@H](c2ccccc2)[C@H](c2ccccc2)N2[C@H]1[C@@H](C(=O)N1CCCCCCC1)[C@]1(C(=O)Nc3ccc(C#CCCO)cc31)[C@H]2c1ccc(OCCO)cc1" : composite z-score value = 0.963

// CC(C)(C)N1CC=CC23O[C@@H]4C=CCCOC(=O)C4[C@H]2C(=O)N(CCCO)[C@@H]3C1=O (stereo partly specified) : composite z-score value = -1.18

// "C[C@@]1([C@@H](NC(=O)c2cccs2)c2ccc(-c3ccccc3)cc2)C[C@H]1C1CCCCC1" : composite z-score value = -0.0139

// "O=C1O[C@H](c2ccccc2)[C@H](c2ccccc2)N2[C@H]1[C@@H](C(=O)N1CCN(c3ncccn3)CC1)[C@]1(C(=O)Nc3ccc(C#CCCO)cc31)[C@H]2c1ccc(OCCO)cc1" : composite z-score value = 0.853

// CN1C(=O)C2C=CC(C(O)c3cccc4ccccc34)N(NC(=O)OC(C)(C)C)C2C1=O (stereo unspecified) : composite z-score value = 0.586

Continuing:
// "C[C@@H]1ON(c2ccccc2)[C@H](c2ccccc2)[C@H]1C(=O)N1C(=O)OC[C@H]1Cc1ccccc1" : composite z-score value = 0.351

// CC(C)c1ccc(NN2C(C(O)c3cccs3)C=CC3C(=O)N(c4ccccc4)C(=O)C32)cc1 (stereo unspecified) : composite z-score value = 0.499

// "COCC(=C=CC[C@@H](O)c1ccccc1OCCO)C[C@@H](O)c1ccccn1" : composite z-score value = 0.76

// O=C1NC(=O)C2C1C=CC(C(O)c1ccc(-c3ccccc3)s1)N2Nc1ccccn1 (stereo unspecified) : composite z-score value = 0.212

// "COC(=O)[C@]1(Cc2ccccc2CN=[N+]=[N-])N=C(c2ccc(OCCCO)cc2)O[C@@H]1c1ccccc1" : composite z-score value = 0.534

// "COC(=O)c1c(CC[C@@H](CO)NC(=O)N[C@@H](C)Cn2cc(C3(O)CCCC3)nn2)oc(C(C)=O)c1C(=O)OC" : composite z-score value = 0.407

// "CN(C)C(=O)[C@@]1(CCC(=O)OC(C)(C)C)COC(c2ccc(OCCCO)cc2)=N1" : composite z-score value = 0.846

// "C=C(C(=O)CC[C@H](OC(=O)c1cccnc1)c1ccc(OCCO)cc1)C(C)C" : composite z-score value = 0.551

// "COc1cc2c(cc1OC)CN(C(=O)[C@@H]1[C@H]3C(=O)O[C@H](c4ccccc4)[C@H](c4ccccc4)N3[C@H](c3ccc(OCCO)cc3)[C@@]13C(=O)Nc1ccc(C#CCCO)cc13)CC2" : composite z-score value = 0.75

// "O=C(Nc1cc(Br)ccc1C(=O)NCc1cccc(O)c1)c1ccccc1" : composite z-score value = 0.597

// "[N-]=[N+]=NCc1ccccc1C[C@]1(C(=O)NCCN2CCOCC2)N=C(c2ccc(OCCCO)cc2)O[C@H]1c1ccccc1" : composite z-score value = 0.817

// "CCCCC(=C=CC[C@H](O)c1ccccc1OCCO)C[C@H](O)c1ccccn1" : composite z-score value = 0.318

// "O=C1c2ccccc2[C@](Cc2ccccc2I)(C(=O)NC2CC2)[C@H](c2ccc(CO)cc2)N1Cc1ccccc1Cl" : composite z-score value = -0.154
